- System: BJeLR fibroblast viability, Alamar Blue fluorescence, 48 h
- assayOverview: BJeLR fibroblast growth inhibition, viability readout – cell-based, alamar blue fluorescence, 48 h, cherrypicked samples, dose response (AID 2610);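 also: BJ fibroblasts with hTERT plus SV40 large and small T and HRAS V12; EC50 for loss of viable cells so potency reflects cytotoxic compounds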
Inconclusive results are not listed. Calls of active or inactive are those of the source.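 The calls were made as follows: active = EC50 no more than tenfold above the top concentration tested, with valid fit and all samples agreeing; inconclusive = flat fit at 30 to 70% inhibition, poor fit, or split samples; inactive = EC50 beyond tenfold the top concentration tested.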
Returns: one label drawn from active, inactive

Example entries and their recorded answers appear below.
• C=C1C(=O)O[C@@H]2C[C@@H](C)[C@@H]3C=CC(=O)[C@@]3(C)[C@@H](OC(=O)CC(=O)O[C@H]3[C@@H]4C(=C)C(=O)O[C@@H]4C[C@@H](C)[C@@H]4C=CC(=O)[C@]43C)[C@H]12 = active
• Cc1ccc(/C=C2\SC(=S)N(CCCC(=O)N3CCOCC3)C2=O)cc1 = active
• S=c1nc[nH]c2nc[nH]c12 = inactive

Consider the record given below.
### Prompt Name the outcome recorded for "CCN(CC)c1ccc(/C=N/NC(=O)c2ccc3nc[nH]c3c2)c(O)c1" in the assay.
### Response active

---

- System: BJeLR fibroblast viability, Alamar Blue fluorescence, 48 h
- assayOverview: BJeLR fibroblast growth inhibition, viability readout – cell-based, alamar blue fluorescence, 48 h, cherrypicked samples, dose response (AID 2610);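 also: BJ fibroblasts with hTERT plus SV40 large and small T and HRAS V12; EC50 for loss of viable cells so potency reflects cytotoxic compounds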
Inconclusive results are not listed. Active and inactive are the calls of the source.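 Rule for the calls: active = EC50 no more than tenfold above the top concentration tested, with valid fit and all samples agreeing; inconclusive = flat fit at 30 to 70% inhibition, poor fit, or split samples; inactive = EC50 beyond tenfold the top concentration tested.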
Returns: one label drawn from 1 (yes) = active, 0 (no) = inactive

* COc1ccc2nc(NC(=O)c3ccoc3C)sc2c1 | 0 (no)

### Prompt Name the outcome recorded for "CCOc1cc(/C=C2\COc3ccccc3C2=O)cc(Br)c1OCC(=O)N(C)C" in the assay.
### Response 1 (yes)

---

- Tested on: BJeLR fibroblast viability, Alamar Blue fluorescence, 48 h
- assayOverview: BJeLR fibroblast growth inhibition, viability readout – cell-based, alamar blue fluorescence, 48 h, cherrypicked samples, dose response (AID 2610);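 also: BJ fibroblasts with hTERT plus SV40 large and small T and HRAS V12; EC50 for loss of viable cells so potency reflects cytotoxic compounds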
Results filed as inconclusive are left out. Activity calls are given as the source filed them.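 The calls were made as follows: active = EC50 no more than tenfold above the top concentration tested, with valid fit and all samples agreeing; inconclusive = flat fit at 30 to 70% inhibition, poor fit, or split samples; inactive = EC50 beyond tenfold the top concentration tested.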
propertyLabel: EC50

Record excerpt, results attached:
- COc1ccc2[nH]c(=O)c(CN(Cc3cccs3)S(=O)(=O)c3cccc4nsnc34)cc2c1: 1460 nM
- O=Cc1ccc(O)c2ncccc12: 463 nM
- COc1ccccc1/C=C1\SC(=O)N(CCC(=O)NCCCn2ccnc2)C1=O: > 13300 nM (inactive)
- Cc1cc2nc(/C=C/c3cccnc3)[nH]c2cc1C: < 104 nM
- COc1cc(/C=C/[N+](=O)[O-])ccc1O: 6500 nM
- CCCc1cc(=O)[nH]c(SCC(=O)c2c(N)n(CC(C)C)c(=O)n(C)c2=O)n1: > 13300 nM (inactive)
- COc1ccc(/C=C/c2cc(-c3ccc(C)cc3)o[n+]2C)cc1: 654 nM
- C[C@@H]1C=CC(=O)O[C@@H]1c1ccc(C(F)(F)F)cc1: 1970 nM

Measured EC50 of "CC[C@@]1(O)C(=O)OCc2c1cc1n(c2=O)Cc2cc3c(CN(C)C)c(O)ccc3nc2-1" : < 39.2 nM

Measured EC50 of "CC(C)c1onc(C(=O)N2CCN(C(c3ccccc3)c3ccccc3)CC2)c1[N+](=O)[O-]" : 522 nM

Measured EC50 of "CCc1ccc(/C=C2/SC(=S)N(CCC(=O)NCCCN3CCOCC3)C2=O)cc1" : 2420 nM

Measured EC50 of "C(=N\Nc1nncc2ccccc12)/c1ccccn1" : 3340 nM

Measured EC50 of "C[C@H]1O[C@@H](O[C@H]2[C@@H](O)C[C@H](O[C@H]3[C@@H](O)C[C@H](O[C@H]4CC[C@@]5(C)[C@H](CC[C@@H]6[C@@H]5C[C@@H](O)[C@]5(C)[C@@H](C7=CC(=O)OC7)CC[C@]65O)C4)O[C@@H]3C)O[C@@H]2C)C[C@H](O)[C@@H]1O" : < 104 nM

Measured EC50 of "O=c1c2ccccc2nc(/C=C/c2ccc([N+](=O)[O-])o2)n1-c1ccc(O)cc1" : 3660 nM

Measured EC50 of "CSc1cc(-c2ccccc2)n(Cc2ccccc2Cl)c(=O)c1C#N" : 709 nM

Measured EC50 of "O=C(Sc1cccc2cccnc12)c1ccccc1Br" : 337 nM

Measured EC50 of "S=C(N/N=C/c1ccc2ncccc2c1)Nc1ccccc1" : > 13300 nM (inactive)
